Measured inhibition accompanies every entry in the list below.
Target: Fatty-acid amide hydrolase 1 (Rattus norvegicus)
Assay: Inhibition of FAAH in rat brain homogenates at 10 uM
Format: tissue-based
measurement-name: inhibition

1) O=C1C(c2ccc(Cl)cc2)N(c2cccc(Cl)c2)C(=O)N1c1cccc(Cl)c1 (stereo not given)    < 10%
2) O=C1C(c2ccc(Cl)cc2)N(c2ccccc2)C(=O)N1c1ccccc1 (stereo not given)    13.7%
3) O=C1C(c2ccccc2)N(c2ccc(O)cc2)C(=S)N1c1ccc(O)cc1 (stereo not given)    31.5%
4) O=C1C(c2ccccc2)N(c2ccc(Cl)c(Cl)c2)C(=S)N1c1ccc(Cl)c(Cl)c1 (stereo not given)    22.9%
5) O=C1C(c2ccccc2)N(c2ccccc2)C(=O)N1c1ccccc1 (stereo not given)    < 10%
6) O=C1C(c2ccccc2)N(c2cccc(I)c2)C(=S)N1c1cccc(I)c1 (stereo not given)    17.4%
7) O=C1C(c2ccccc2)N(c2ccc(Cl)cc2)C(=S)N1c1ccc(Cl)cc1 (stereo not given)    11.4%
8) O=C1C(c2ccccc2)N(c2ccccc2)C(=S)N1c1ccccc1 (stereo not given)    11.8%
9) O=C1C(c2ccccc2)N(c2ccc(Cl)cc2)C(=O)N1c1ccc(Cl)cc1 (stereo not given)    < 10%
10) O=C1C(c2ccc(Br)cc2)N(c2ccccc2)C(=S)N1c1ccccc1 (stereo not given)    19.1%

# credit: ChEMBL document CHEMBL1148623
